Reference source: paper PMC9482650

biological target: GRIP2_6, Q9C0E4; assay: holdup assay; set-up: key: below the threshold = too weak to quantify, mostly under pKd 3.1 to 4; details: plain residues with an end cap or a label only (N-terminal biotin on a linker: ado-ado)
Sequence (Q9C0E4 648-740): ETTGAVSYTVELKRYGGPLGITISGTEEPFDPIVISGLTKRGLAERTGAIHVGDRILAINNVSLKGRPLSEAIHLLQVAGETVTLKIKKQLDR

Binder: QLKSGRDSTV [TMEM178A, Q8NBL3]
pKd: 3.49

Binder: QLGSPTADLA [SIPA1, Q96FS4]
pKd: below the threshold

Binder: GTMFLRETSL [GUCY1A2, P33402]
pKd: below the threshold

Binder: TNSKQGETTV [FZD1, Q9UP38]
pKd: below the threshold

Binder: TKEIPNCTSV [SORCS3, Q9UPU3]
pKd: below the threshold

Binder: MQILSKPEFI [NPSR1, Q6W5P4]
pKd: below the threshold

Binder: PLATCDETSI [SEMA4F, O95754]
pKd: below the threshold

Binder: GQNMTVSVVI [PRLHR, P49683]
pKd: 4.15
